Source: BindingDB's records for doi:10.1016/j.bmcl.2018.12.060

# system-under-test: Hypoxia-inducible factor 1-alpha (Homo sapiens)
# Sequence (Q16665 whole entry): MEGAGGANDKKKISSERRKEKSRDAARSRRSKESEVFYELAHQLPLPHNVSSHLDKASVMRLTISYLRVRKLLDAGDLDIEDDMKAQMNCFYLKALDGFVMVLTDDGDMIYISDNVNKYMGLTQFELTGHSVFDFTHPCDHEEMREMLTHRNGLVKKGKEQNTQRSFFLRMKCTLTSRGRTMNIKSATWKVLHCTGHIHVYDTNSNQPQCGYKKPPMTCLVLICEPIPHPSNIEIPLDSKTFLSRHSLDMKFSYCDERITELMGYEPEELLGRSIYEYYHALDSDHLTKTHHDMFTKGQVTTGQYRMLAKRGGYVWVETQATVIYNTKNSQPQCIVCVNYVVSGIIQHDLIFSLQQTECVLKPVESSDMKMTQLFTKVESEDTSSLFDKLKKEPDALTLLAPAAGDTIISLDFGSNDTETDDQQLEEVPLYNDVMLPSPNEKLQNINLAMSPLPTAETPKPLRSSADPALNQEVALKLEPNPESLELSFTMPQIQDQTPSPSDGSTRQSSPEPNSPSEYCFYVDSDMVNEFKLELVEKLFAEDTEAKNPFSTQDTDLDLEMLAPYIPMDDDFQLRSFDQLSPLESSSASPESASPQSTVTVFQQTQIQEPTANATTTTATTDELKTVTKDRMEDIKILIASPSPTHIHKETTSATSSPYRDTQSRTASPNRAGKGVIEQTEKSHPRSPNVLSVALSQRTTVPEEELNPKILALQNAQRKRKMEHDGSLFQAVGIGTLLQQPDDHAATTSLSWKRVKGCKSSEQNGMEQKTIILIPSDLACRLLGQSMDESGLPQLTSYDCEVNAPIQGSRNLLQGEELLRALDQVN
# test-summary: Inhibition of HIF1alpha transcriptional activity in human Hep3B cells after 24 hrs in hypoxic condition by HRE-dual luciferase reporter gene assay
metric: IC50

1. C[C@H]1[C@H](C)CC[C@]2(C(=O)O)CC[C@]3(C)C(=CC[C@@H]4[C@@]5(C)CC(=C\c6cccc(Cl)c6)/C(=N\NC(=N)N)C(C)(C)[C@@H]5CC[C@]43C)[C@H]12
> 100 µM
2. C[C@H]1[C@H](C)CC[C@]2(C(=O)O)CC[C@]3(C)C(=CC[C@@H]4[C@@]5(C)CC(=C\c6ccc(F)cc6)/C(=N\NC(=N)N)C(C)(C)[C@@H]5CC[C@]43C)[C@H]12
> 100 µM
3. C[C@H]1[C@H](C)CC[C@]2(C(=O)O)CC[C@]3(C)C(=CC[C@@H]4[C@@]5(C)CC(=C\c6ccc(Cl)cc6Cl)/C(=N\NC(=N)N)C(C)(C)[C@@H]5CC[C@]43C)[C@H]12
90.4 µM
